- protocol-description: Dengue virus 2 cytopathic effect protection, dose response, BHK-21 cells, ATP luminescence, cherry-pick (AID 687031)
- condition: BHK-21 DENV2 CPE protection, 5 d; series mostly up to 19.5 µM
Out of some 1,400 compounds screened, about 50 (4%) were called active. Not all results are given here. Entries with a potency or affinity are not part of this list.
quantity: outcome

>  <compound>
O=C(NCC1CC1)c1onc(CSc2ccc(F)c(F)c2)c1C(=O)NCC1CC1

>  <result>
inactive

$$$$
>  <compound>
CC(C)Cc1ccc(C(C)C(N)=NCCc2ccccc2)cc1 (stereo unspecified)

>  <result>
inactive

$$$$
>  <compound>
O=C(NCc1cccs1)c1cccc(Nc2nc3ccc(Br)cc3[nH]2)c1

>  <result>
inactive

$$$$
>  <compound>
COc1cc(C)ccc1OCc1cc(C(=O)NCCN2CCCC(O)C2)no1 (stereo unspecified)

>  <result>
inactive

$$$$
>  <compound>
O=C(NCc1cc(C(F)(F)F)cc(C(F)(F)F)c1)C1CC(c2cccc(F)c2)=NO1 (stereo unspecified)

>  <result>
inactive

$$$$
>  <compound>
O=C(Nc1ccc2c(c1)OCCO2)c1cccc(C(=O)Nc2ccc3c(c2)OCCO3)c1

>  <result>
inactive

$$$$

INPUT: Could you please provide reported outcome for `C[C@@H]1CN([C@H](C)CO)C(=O)c2cc(N(C)C)ccc2O[C@@H](C)CCCCO[C@@H]1CN(C)C(=O)CCC(F)(F)F` ? Thanks!
OUTPUT: inactive

INPUT: Provide measured outcome value, entry: `CCOc1ccc(C(=O)Nc2ccc(CN3CCOCC3)cc2)cc1Cl`
OUTPUT: inactive

INPUT: Kindly indicate its recorded outcome. Item: COCCNC(=O)C1CCC(CNS(=O)(=O)c2ccc(F)cc2)CC1 (stereo unspecified)
OUTPUT: inactive

INPUT: State its outcome: CCNC(=O)C1(C)CCN(Cc2noc(-c3c(C)noc3C)n2)C1 (stereo unspecified)
OUTPUT: inactive

INPUT: Please report the measured outcome for `Brc1ccc(OCc2nnc(SCC3CCCCC3)o2)cc1`
OUTPUT: inactive

INPUT: Supply recorded outcome for `COc1cc(OC)cc(C(=O)NCCC(c2ccccc2)c2ccccc2)c1` here.
OUTPUT: inactive

----------
- protocol-description: Dengue virus 2 cytopathic effect protection, dose response, BHK-21 cells, ATP luminescence, cherry-pick (AID 687031)
- condition: BHK-21 DENV2 CPE protection, 5 d; series mostly up to 19.5 µM
The whole screen tested about 1,400 compounds, of which about 50 (4%) were called active. The list is a sample of the results. Entries with a potency or affinity are not part of this list.
quantity: outcome

The cases that follow already have their outcome on record.
>  <molecule>
O=C(NCCS(=O)(=O)N1CCN(c2ccccc2)CC1)C1CC1

>  <result>
inactive

$$$$
>  <molecule>
Cc1noc(C)c1NC(=O)N(C)C[C@@H]1Oc2c(NS(=O)(=O)c3ccccc3)cccc2C(=O)N([C@@H](C)CO)C[C@@H]1C

>  <result>
inactive

$$$$
>  <molecule>
Cc1noc(C)c1NC(=O)Nc1ccc2c(c1)C(=O)N([C@@H](C)CO)C[C@@H](C)[C@@H](CN(C)Cc1ccccc1)OCCCC[C@@H](C)O2

>  <result>
inactive

$$$$
>  <molecule>
Cc1ccc2ccc(C(Nc3ccccc3)c3ccccc3)c(O)c2n1 (centres undefined)

>  <result>
inactive

$$$$
>  <molecule>
Cc1noc(C)c1NC(=O)Nc1ccc2c(c1)C(=O)N([C@@H](C)CO)C[C@@H](C)[C@@H](CN(C)C)OCCCC[C@@H](C)O2

>  <result>
inactive

$$$$
>  <molecule>
C[C@@H]1CCCCO[C@@H](CN(C)S(=O)(=O)c2ccc(F)cc2)[C@@H](C)CN([C@@H](C)CO)C(=O)c2cc(NC(=O)c3ccccc3)ccc2O1

>  <result>
inactive

$$$$
>  <molecule>
COc1ccc(S(=O)(=O)N2CCCCC2c2cc(C(=O)Nc3ccccc3)no2)cc1 (centres undefined)

>  <result>
inactive

$$$$
>  <molecule>
C[C@H](CO)N1C[C@H](C)[C@@H](CN(C)C(=O)C2CC2)Oc2cc(C#Cc3ccccc3)ccc2S1(=O)=O

>  <result>
inactive

$$$$
>  <molecule>
C[C@@H]1CN([C@H](C)CO)C(=O)c2cc(NC(=O)c3ccccc3)ccc2O[C@@H](C)CCCCO[C@@H]1CN(C)S(=O)(=O)c1ccc(F)cc1

>  <result>
inactive

$$$$
>  <molecule>
CO[C@@H]1CN(C)C(=O)c2ccc(NC(=O)CC(F)(F)F)cc2OC[C@H](C)N(C(C)=O)C[C@@H]1C

>  <result>
inactive

$$$$

INPUT: Report outcome for CC(NC(=O)CCc1ccccc1)c1ccc2c(c1)OCO2 (centres undefined)
OUTPUT: inactive

INPUT: Please give measured outcome of the following entry: `CNC[C@@H]1OCCCC[C@H](C)Oc2ccc(NS(=O)(=O)c3c(C)noc3C)cc2C(=O)N([C@@H](C)CO)C[C@@H]1C`
OUTPUT: inactive

INPUT: Could you please provide reported outcome for `O=C(NCCN1CCCC1)[C@H]1N[C@H]2c3ccc(-c4ccccc4)c(=O)n3C[C@H]2[C@@H]1CO` ? Thanks!
OUTPUT: inactive

INPUT: Using known records, supply outcome for Cc1ccc(SCCN2CCC(NC(=O)OCc3ccccc3)CCC2=O)cc1 (centres undefined)
OUTPUT: inactive

INPUT: Indicate its recorded outcome; the molecule in question is Cc1ccccc1-c1cnc(C(O)c2cccc(C)c2C)[nH]1 (centres undefined)
OUTPUT: inactive

INPUT: Let me know recorded outcome for `Cc1cccc(N(CC(=O)NC(C)(C)C)C(=O)CNC(=O)c2cccs2)c1C` , thanks.
OUTPUT: inactive

INPUT: Please give the documented outcome of Cc1cnc(CN(C)C(=O)CC2C(=O)NCCN2Cc2cccc(F)c2F)[nH]1 (centres undefined)
OUTPUT: inactive

INPUT: Give me measured outcome, please, for this molecule: OC(COc1ccc(Cl)cc1Cl)Cn1ccnc1 (centres undefined)
OUTPUT: inactive

INPUT: Quick one: give measured outcome for `O=C(C[C@@H]1CC[C@H]2[C@@H](COC[C@@H](O)CN2C(=O)c2ccncc2)O1)NCc1ccc(-c2ccccc2)cc1`
OUTPUT: inactive
